All figures here come from ChEMBL document CHEMBL5352507.

target-or-test-system: Melanocyte-stimulating hormone receptor (Mus musculus, UniProt Q01727)
Sequence (Q01727 whole entry): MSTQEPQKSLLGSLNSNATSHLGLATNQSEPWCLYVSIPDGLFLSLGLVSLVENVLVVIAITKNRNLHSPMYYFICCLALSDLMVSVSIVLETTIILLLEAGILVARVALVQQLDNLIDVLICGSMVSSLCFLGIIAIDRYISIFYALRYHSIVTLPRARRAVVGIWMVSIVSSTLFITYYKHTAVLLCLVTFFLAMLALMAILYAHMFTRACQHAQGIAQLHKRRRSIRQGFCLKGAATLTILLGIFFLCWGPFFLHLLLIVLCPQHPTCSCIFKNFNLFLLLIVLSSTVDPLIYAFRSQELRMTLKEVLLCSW
assay-remarks: Binding affinity to mouse MC1R expressed in HEK293 cells assessed as inhibition constant by schild plot analysis
Format: cell-based
Square brackets hold non-standard residues; d marks the D form. Peptide text beside a SMILES is read from it. dPhe(4-I) = N[C@H](Cc1ccc(I)cc1)C(=O)O; 2Nal = N[C@@H](Cc1ccc2ccccc2c1)C(=O)O; Dap = NC[C@H](N)C(=O)O
property-measured: pKi
Notebook: values listed as pKi are -log10 of the concentration (mol/L).

Requested field: pKi. Item: CC(=O)N[C@H](Cc1ccc(I)cc1)C(=O)N[C@@H](CN)C(=O)N[C@@H](Cc1ccc2ccccc2c1)C(=O)N[C@@H](CCCNC(=N)N)C(N)=O (Ac-[dPhe(4-I)][Dap][2Nal]R-NH2)
7.00

----------
target-or-test-system: Melanocyte-stimulating hormone receptor (Mus musculus)
assay-remarks: Partial agonist activity against mouse MC1R expressed in HEK293 cells assessed as increase in cAMP level incubated for 2 hrs by AlphaScreen assay
Type: functional, cell-based
Square brackets hold non-standard residues; d marks the D form. Peptide text beside a SMILES is read from it. dPhe(4-I) = N[C@H](Cc1ccc(I)cc1)C(=O)O; 2Nal = N[C@@H](Cc1ccc2ccccc2c1)C(=O)O; Dab = NCC[C@H](N)C(=O)O
property-measured: EC50 (µM)
Write down the numeric answer in µM and omit the unit.

Requested field: EC50. Item: CC(=O)N[C@H](Cc1ccc(I)cc1)C(=O)N[C@@H](CCCNC(=N)N)C(=O)N[C@@H](Cc1ccc2ccccc2c1)C(=O)N[C@@H](CCN)C(N)=O (Ac-[dPhe(4-I)]R[2Nal][Dab]-NH2)
1.1

Requested field: EC50. Item: CC(=O)N[C@H](Cc1ccc(I)cc1)C(=O)N[C@@H](CCCNC(=N)N)C(=O)N[C@@H](Cc1ccc2ccccc2c1)C(=O)N[C@@H](Cc1c[nH]cn1)C(N)=O (Ac-[dPhe(4-I)]R[2Nal]H-NH2)
0.4

----------
target-or-test-system: Melanocortin receptor 4 (Mus musculus)
Sequence (P56450 whole entry): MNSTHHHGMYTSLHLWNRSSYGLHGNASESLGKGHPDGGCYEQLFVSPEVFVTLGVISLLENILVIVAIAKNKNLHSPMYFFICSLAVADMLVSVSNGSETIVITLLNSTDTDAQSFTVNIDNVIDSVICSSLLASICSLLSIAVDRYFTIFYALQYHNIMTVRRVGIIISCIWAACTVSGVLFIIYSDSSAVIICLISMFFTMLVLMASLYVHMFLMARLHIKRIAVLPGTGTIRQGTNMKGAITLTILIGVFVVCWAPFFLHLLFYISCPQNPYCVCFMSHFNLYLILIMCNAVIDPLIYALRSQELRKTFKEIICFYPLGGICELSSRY
assay-remarks: Binding affinity to mouse MC4R expressed in HEK293 cells assessed as inhibition constant by schild plot analysis
Type: cell-based
Square brackets hold non-standard residues; d marks the D form. Peptide text beside a SMILES is read from it. dPhe(4-I) = N[C@H](Cc1ccc(I)cc1)C(=O)O; 2Nal = N[C@@H](Cc1ccc2ccccc2c1)C(=O)O; Orn = NCCC[C@H](N)C(=O)O
property-measured: pKi
Notebook: values listed as pKi are -log10 of the concentration (mol/L).

Requested field: pKi. Item: CC(=O)N[C@H](Cc1ccc(I)cc1)C(=O)N[C@@H](Cc1c[nH]cn1)C(=O)N[C@@H](Cc1ccc2ccccc2c1)C(=O)N[C@@H](CCCNC(=N)N)C(N)=O (Ac-[dPhe(4-I)]H[2Nal]R-NH2)
7.00

Requested field: pKi. Item: CC(=O)N[C@H](Cc1ccc(I)cc1)C(=O)N[C@@H](CCCN)C(=O)N[C@@H](Cc1ccc2ccccc2c1)C(=O)N[C@@H](CCCNC(=N)N)C(N)=O (Ac-[dPhe(4-I)][Orn][2Nal]R-NH2)
7.00
